test system: UACC-62 melanoma; assay: NCI tumour cell line growth inhibition, 48 h; in the data active means GI50 below about 0.43 µM; inactive means the rest
Reply using exactly one outcome from active, inactive

// known answers, use as guide
CCCCCNC(=O)[C@@H]1CCCN2C(=O)CC[C@H](NC(=O)[C@H](Cc3ccc(OP(=O)(O)O)cc3)NC(C)=O)C(=O)N12 ... inactive
N=C1c2nc3n(c2C(=O)c2nc4n(c21)CCCC4)CCCC3 ... inactive
CC1(C)NCCC[C@]2(C)[C@H]3C=CC4=C5C[C@](C)(CO)CC[C@]5(C)CC[C@@]4(C)[C@]3(C)CC[C@@H]12 ... inactive
COc1cc(Cl)cc(-c2nn(C(=O)NCCN3CCN(C)CC3)cc2-c2ccncc2)c1 ... inactive
COc1ccc2c(c1)nc(N)c1c3cc(OC)c(OC)cc3cn21 ... active
CC1(C)OC[C@@H]([C@@]2(CO[Si](C)(C)C(C)(C)C)CC=CC(=O)O2)O1 ... inactive
CCC1=C[C@@H]2CN(C1)Cc1c([nH]c3ccccc13)[C@@](C(=O)OC)(c1cc3c(cc1OC)N(C=O)[C@H]1[C@@](O)(C(=O)OC)[C@H](OC(C)=O)[C@]4(CC)[C@@H]5C[C@@H]5CN5CC[C@]31[C@@H]54)C2 ... active
CCN1C(=O)N(CC)C2C1NN=c1s/c(=C3\C(=O)N(CC(C)C)c4ccccc43)c(=O)n12 (stereo not given) ... inactive
c1ccc2[nH]c(SSc3nc4ncncc4[nH]3)nc2c1 ... inactive

So what was the verdict on COC(=O)NC/C=C\c1nc(CC/C=C\C(=O)OC2CC3CC(=O)O[C@H](/C=C/CC(C)C)C[C@H]4CCC(C)C(C[C@H](OC)CC(C2)O3)O4)co1 (stereo not given in full) in this test?
active
